src = patent US5624936A

Entries and their IC50
target: human FPTase (Homo sapiens, UniProt P49354+P49356); assay: In vitro inhibition of human farnesyl-protein transferase (FPTase); details: 100 nM Ras-CVIM substrate, [3H]-FPP, 30 min; read-out: IC50, inhibitory activity against human FPTase
Where a name gives a salt, the structure may show the parent alone.
OBSERVED_PROPERTY: IC50

[
  {
    "MOLECULE": "CC[C@H](C)[C@@H](CN1Cc2ccccc2C[C@H]1C(=O)N[C@@H](CCSC)C(=O)O)NC(=O)[C@@H]1CCC(=O)N1 [Example 3, Step B, trifluoroacetate]",
    "ASSAY_VALUE": "< 10 µM"
  },
  {
    "MOLECULE": "CC[C@H](C)[C@@H](CN1Cc2ccccc2C[C@H]1C(=O)N[C@@H](CCSC)C(=O)O)NC(=O)Cc1c[nH]cn1 [Examples 1. Step G, trifluoroacetate]",
    "ASSAY_VALUE": "< 10 µM"
  }
]
